METHOD_DESCRIPTION: TOX21_p53_BLA_p2_viability: Viability Assessment in the Tox21 HCT-116 p53 Agonism Beta-lactamase Assay, Phase 2 (AID 2283591);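 also: compound exposure lasted 16 h at 37 °C; actives lower the ATP signal meaning cytotoxicity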
Inconclusive results are not listed. The source made the active and inactive calls. The calls were made as follows: active = hit-call score of the fitted dose curve at least 0.9, where 1 is the maximum; inconclusive = response in the unintended direction; inactive = score below 0.9.
Return exactly one item of active, inactive

Worked cases, answers included:
compound=O=C(O)CC[N+](=O)[O-] cat=inactive
compound=Cc1nnc2n1-c1sc(CCC(=O)N3CCOCC3)cc1C(c1ccccc1Cl)=NC2 cat=inactive
compound=N#CCc1ccccc1 cat=inactive
compound=CC(Cl)(Cl)Cl cat=inactive

Which outcome was assigned to CCCCCCCCCCCCCC[P+](CCCCCC)(CCCCCC)CCCCCC (tested in a mixture with another compound) in this test?
active

Please give the result for `CSCCCN=C=S` too.
inactive

Please give the result for C=CC1CC=CCC1 (stereo not given) too.
inactive

Please give the result for `O=C(O)c1cc(Cl)ccc1Cl` too.
inactive

Please give the result for `CC(C)CON=O` too.
inactive

Please give the result for `N=C(N)[Se]` too.
inactive

Please give the result for `C=CC(=O)OCCN(C)C` too.
inactive

Please give the result for `CC(C)N(C(=O)SCC(Cl)=CCl)C(C)C` too.
inactive

Please give the result for `ClC(Br)Br` too.
inactive
